# assay_details: Mass balance study, single oral dose of [14C]-pexidartinib 400 mg
# Assay type: in vivo, human
# cond: male, human, plasma, po, 400 mg, AUClast, pexidartinib in plasma, single oral [14C]-pexidartinib 400 mg, N = 8; mean (CV%)
result_type: AUC(0-t) (ng·h/mL)
Please reply with the bare figure in ng·h/mL and do not write the unit itself.

Per the records, this compound ( `FC(F)(F)c1ccc(CNc2ccc(Cc3c[nH]c4ncc(Cl)cc34)cn2)cn1` ) has AUC(0-t) equal to 60400

----------
# assay_details: Mass balance study, single oral dose of [14C]-pexidartinib 400 mg
# Type: in vivo, human
# cond: male, human, plasma, po, 400 mg
result_type: half-life (h)
The reply should contain only the number, in h.

Notebook: `FC(F)(F)c1ccc(CNc2ccc(Cc3c[nH]c4ncc(Cl)cc34)cn2)cn1` , half-life read as 28.7

From: paper PMC10099993
